Hello, the source for this data is patent US6046217A, in case you need it.

I'd appreciate it if you could supply IC50 values for the items below.
# Tested On: COX-1 (Homo sapiens)
# Sequence (P23219 24-599): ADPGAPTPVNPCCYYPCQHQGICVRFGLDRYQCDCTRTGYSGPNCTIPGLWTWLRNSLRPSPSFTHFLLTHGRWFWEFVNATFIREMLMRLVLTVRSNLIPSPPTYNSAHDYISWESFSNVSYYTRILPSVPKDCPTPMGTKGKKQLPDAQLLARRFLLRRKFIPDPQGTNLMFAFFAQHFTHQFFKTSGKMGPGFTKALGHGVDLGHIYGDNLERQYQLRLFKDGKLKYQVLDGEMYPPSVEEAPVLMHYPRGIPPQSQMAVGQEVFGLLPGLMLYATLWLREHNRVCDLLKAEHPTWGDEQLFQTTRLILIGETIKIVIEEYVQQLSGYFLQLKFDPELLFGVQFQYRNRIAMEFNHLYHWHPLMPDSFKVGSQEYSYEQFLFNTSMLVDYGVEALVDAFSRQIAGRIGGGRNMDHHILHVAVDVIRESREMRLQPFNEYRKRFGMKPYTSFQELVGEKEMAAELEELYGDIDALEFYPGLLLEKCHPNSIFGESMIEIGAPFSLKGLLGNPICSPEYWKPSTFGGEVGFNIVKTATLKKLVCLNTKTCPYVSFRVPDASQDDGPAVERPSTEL
# Assay Details: Human whole blood assay, COX-1 (clotting-induced TxB2 production)
# Format: cell-based
# Set-up: platelets in whole blood contain a large amount of the COX-1 enzyme; endogenous in cells; host or cells: platelets in fresh human whole blood, clotting
# Condition Summary: human whole blood, clotting-induced TxB2, 1 h; read-out: COX-1 (IC50 mM) HWB

// query Fill in reported IC50 for this entry: CS(=O)(=O)c1ccc(-c2cc(C(F)(F)F)cnc2OCC2(O)CCCC2)cc1 [Example 13]
// result 0.096 mM

// query Fill in reported IC50 for this entry: CCC(O)(CC)[C@@H](C)Oc1ncc(C(F)(F)F)cc1-c1ccc(S(C)(=O)=O)cc1 [Example 21]
// result > 0.1 mM

// query Fill in reported IC50 for this entry: C[C@@H](Oc1ncc(C(F)(F)F)cc1-c1ccc(S(C)(=O)=O)cc1)C(C)(C)O [Example 17]
// result > 0.1 mM

// query Fill in reported IC50 for this entry: C[C@H](CO)Oc1ncc(C(F)(F)F)cc1-c1ccc(S(C)(=O)=O)cc1 [Example 28]
// result > 0.1 mM

----------
# Tested On: COX-2 (Homo sapiens, UniProt P35354)
# Sequence (P35354 18-604): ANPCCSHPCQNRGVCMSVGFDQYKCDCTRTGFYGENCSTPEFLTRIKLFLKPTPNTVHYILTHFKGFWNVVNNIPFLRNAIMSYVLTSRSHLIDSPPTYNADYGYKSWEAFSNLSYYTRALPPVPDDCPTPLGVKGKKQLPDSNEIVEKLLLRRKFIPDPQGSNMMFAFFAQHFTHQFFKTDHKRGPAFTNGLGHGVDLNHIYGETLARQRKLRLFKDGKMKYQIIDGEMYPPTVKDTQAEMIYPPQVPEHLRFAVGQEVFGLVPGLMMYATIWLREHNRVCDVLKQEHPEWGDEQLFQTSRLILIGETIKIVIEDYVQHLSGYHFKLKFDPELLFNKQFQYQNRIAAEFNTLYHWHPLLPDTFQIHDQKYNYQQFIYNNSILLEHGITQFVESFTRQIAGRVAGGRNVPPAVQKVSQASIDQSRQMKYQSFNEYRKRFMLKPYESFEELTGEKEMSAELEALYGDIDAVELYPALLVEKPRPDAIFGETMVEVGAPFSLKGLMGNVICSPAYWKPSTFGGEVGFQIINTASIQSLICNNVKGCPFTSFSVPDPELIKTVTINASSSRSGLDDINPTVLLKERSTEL
# Assay Details: cell-based
# Condition Summary: COX-2 (IC50 mM) HWB, human whole blood, LPS-induced PGE2, 24 h
Result Type: IC50
Units required after the number.

// query Fill in reported IC50 for this entry: CC(CO)Sc1ncc(C(F)(F)F)cc1-c1ccc(S(C)(=O)=O)cc1 (stereo not shown) [Example 50]
// result 0.0005 mM

----------
# Tested On: COX-2 (Homo sapiens, UniProt P35354)
# Assay Details: cell-based
Result Type: IC50 (µM)
// return numeric value only (unit: µM, not printed)

// query Fill in reported IC50 for this entry: CC(CO)Sc1ncc(C(F)(F)F)cc1-c1ccc(S(C)(=O)=O)cc1 (stereo not shown) [Example 50]
// result 0.05

----------
# Tested On: COX-2 (Homo sapiens)
# Assay Details: cell-based
# Condition Summary: human whole blood, LPS-induced PGE2, 24 h; read-out: COX-2 (IC50 mM) HWB
So basically, if IC50 comes in under 0.002 mM it's Condition met, and if it's 0.002 mM or more it's Condition not met.

// query Is IC50 of "COC(C)(C)COc1ncc(C(F)(F)F)cc1-c1ccc(S(C)(=O)=O)cc1" strictly below 0.002 mM?
// result Condition met

// query Is IC50 of "C[C@H](O)CCOc1ncc(C(F)(F)F)cc1-c1ccc(S(C)(=O)=O)cc1" strictly below 0.002 mM?
// result Condition not met

// query Is IC50 of "C[C@@H](O)[C@@H](C)Oc1ncc(C(F)(F)F)cc1-c1ccc(S(C)(=O)=O)cc1" strictly below 0.002 mM?
// result Condition met

// query Is IC50 of "CCC(O)(CC)[C@@H](C)Oc1ncc(C(F)(F)F)cc1-c1ccc(S(C)(=O)=O)cc1" strictly below 0.002 mM?
// result Condition not met

// query Is IC50 of "CCC(O)(CC)CSc1ncc(Cl)cc1-c1ccc(S(C)(=O)=O)cc1" strictly below 0.002 mM?
// result Condition met

// query Is IC50 of "C[C@H](CO)Oc1ncc(C(F)(F)F)cc1-c1ccc(S(C)(=O)=O)cc1" strictly below 0.002 mM?
// result Condition not met

// query Is IC50 of "C[C@@H](Oc1ncc(C(F)(F)F)cc1-c1ccc(S(C)(=O)=O)cc1)C(C)(C)O" strictly below 0.002 mM?
// result Condition met

// query Is IC50 of "C[C@@H](O)CCOc1ncc(C(F)(F)F)cc1-c1ccc(S(C)(=O)=O)cc1" strictly below 0.002 mM?
// result Condition not met

// query Is IC50 of "CCC(O)(CC)[C@H](C)Oc1ncc(C(F)(F)F)cc1-c1ccc(S(C)(=O)=O)cc1" strictly below 0.002 mM?
// result Condition met
